- Test system: 186277-243-T-J2-PDC complex spheroid viability;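 also: spheroids exposed to compounds for seven days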
- Protocol Text: Anticancer human tumor 186277-243-T-J2-PDC patient-derived colon adenocarcinoma cell line growth inhibition [POLQ]
- Condition Details: curve of first compound; second compound 1 µM
Reported Property: IC50

Solved cases (7 shown):
[[record]]
molecule = "C=CC(=O)N1CCN(c2nc(=O)n(-c3c(C)ccnc3C(C)C)c3nc(-c4c(O)cccc4F)c(F)cc23)C(C)C1 (stereo not drawn) + Cc1cccc(N(C)C(=O)C2C(O)CCN2c2nc(C)cc(C(F)(F)F)c2C#N)c1"
reported_property = "IC50"
measured_value = "> 10 µM"

[[record]]
molecule = "O=c1[nH]cc(F)c(=O)[nH]1 + Nc1ccc(C#CCN(C(=O)Cc2ncc(C(F)(F)F)cc2C(F)(F)F)c2ccc(F)cc2)nn1"
reported_property = "IC50"
measured_value = "> 10 µM"

[[record]]
molecule = "CC(=O)O[C@H]1C(=O)[C@@]2(C)[C@H]([C@H](OC(=O)c3ccccc3)[C@]3(O)C[C@H](OC(=O)[C@H](O)[C@@H](NC(=O)c4ccccc4)c4ccccc4)C(C)=C1C3(C)C)[C@]1(OC(C)=O)CO[C@@H]1C[C@@H]2O + Nc1ccc(C#CCN(C(=O)Cc2ncc(C(F)(F)F)cc2C(F)(F)F)c2ccc(F)cc2)nn1"
reported_property = "IC50"
measured_value = "< 0.00949 µM"

[[record]]
molecule = "CC(C)n1c(=O)n(C)c2cnc3cc(F)c(-c4ccc(OCCCN5CCCCC5)nc4)cc3c21 + COC1C(OC(N)=O)C(O)C(Oc2ccc3c(O)c(NC(=O)c4ccc(O)c(CC=C(C)C)c4)c(=O)oc3c2C)OC1(C)C"
reported_property = "IC50"
measured_value = "> 10 µM"

[[record]]
molecule = "CCc1cc2c(N3CCc4c(cc(Cn5ccnc5)cc4-c4cn(C)nc4C(F)(F)F)C3=O)cc(C)nc2c(OC)n1 + Nc1ccc(C#CCN(C(=O)Cc2ncc(C(F)(F)F)cc2C(F)(F)F)c2ccc(F)cc2)nn1"
reported_property = "IC50"
measured_value = "> 10 µM"

[[record]]
molecule = "CCc1cc2c(N3CCc4c(cc(Cn5ccnc5)cc4-c4cn(C)nc4C(F)(F)F)C3=O)ccnc2c(OC)n1 + Cc1cccc(N(C)C(=O)C2C(O)CCN2c2nc(C)cc(C(F)(F)F)c2C#N)c1"
reported_property = "IC50"
measured_value = "> 10 µM"

[[record]]
molecule = "CCc1cc2c(N3CCc4c(cc(Cn5ccnc5)cc4-c4cn(C)nc4C(F)(F)F)C3=O)cc(C)nc2c(OC)n1 + COC1C(OC(N)=O)C(O)C(Oc2ccc3c(O)c(NC(=O)c4ccc(O)c(CC=C(C)C)c4)c(=O)oc3c2C)OC1(C)C"
reported_property = "IC50"
measured_value = "> 10 µM"


Turning now to a further record.
Given Cn1ncnc1[C@H]1c2n[nH]c(=O)c3cc(F)cc(c23)N[C@@H]1c1ccc(F)cc1 + Nc1ccc(C#CCN(C(=O)Cc2ncc(C(F)(F)F)cc2C(F)(F)F)c2ccc(F)cc2)nn1 , report its IC50 on 186277-243-T-J2-PDC complex spheroid viability.
> 0.1 µM
